pIC50: −log10 of the molar value.
Literature compilation of pIC50 measurements on BTK (Homo sapiens).
measured quantity: pIC50

{"compound": "C=CC(=O)Nc1cccc(-c2cc(-c3ccc(C(=O)Nc4cc(C5CC5)ccn4)cc3)cc3cncnc23)c1", "measured quantity": "pIC50", "experimental result": "> 7.00"}
{"compound": "CCC1C(Nc2ncnc3[nH]ccc23)CCCN1C(=O)CNc1cc(F)cc(Cl)c1 (stereo not drawn)", "measured quantity": "pIC50", "experimental result": "6.00 to 7.00"}
{"compound": "Cc1cc(-c2ccnc(Nc3cnn(C)c3)n2)ccc1CN1CCN(CC(C)C)CC1=O", "measured quantity": "pIC50", "experimental result": "> 8.00"}
{"compound": "Cc1cc(-c2ncnc3cc(-c4cnn(C)c4)[nH]c23)ccc1C(C)NC(=O)c1cnc(C(C)(C)C)s1 (stereo not drawn)", "measured quantity": "pIC50", "experimental result": "> 8.00"}
{"compound": "Cn1cc(Nc2nccc(-c3ccc(CNC(=O)c4cnn(C(C)(C)C)c4)c(C#N)c3)n2)cn1", "measured quantity": "pIC50", "experimental result": "> 8.00"}
{"compound": "CCOc1c(OCc2ccc(N3CCCC3)nc2)cccc1C(=O)c1c[nH]c2ncccc12", "measured quantity": "pIC50", "experimental result": "≥ 5.00"}
{"compound": "Cn1cc(Nc2nccc(-c3ccc(CNC(=O)N4CC(OC(C)(C)C)C4)c(CCO)c3)n2)cn1", "measured quantity": "pIC50", "experimental result": "> 8.00"}
{"compound": "C[C@H]1CC[C@@H](NC(=O)[C@H](Nc2cc(F)cc(Cl)c2)C2CC2)CN1c1ncnc2[nH]ncc12", "measured quantity": "pIC50", "experimental result": "6.00 to 7.00"}
{"compound": "CN(Cc1ccccc1)c1nc2ccc(-c3cccc4c(N)c(C(N)=O)nnc34)cc2[nH]1", "measured quantity": "pIC50", "experimental result": 6.00}
{"compound": "C=CC(=O)N1CCCC(c2nc(-c3ccc(Oc4ccccc4)cc3)c(C(N)=O)s2)C1 (stereo not drawn)", "measured quantity": "pIC50", "experimental result": "> 6.30"}
{"compound": "COc1cc(-c2nn([C@@H]3CCN(C(=O)/C=C/CN(C)C4CC4)C3)c3ncnc(N)c23)ccc1C", "measured quantity": "pIC50", "experimental result": "> 7.00"}
{"compound": "CC#CC(=O)N1CC[C@H]1Cn1nc(-c2ccc(Oc3ccccc3)cc2)c2cncnc21", "measured quantity": "pIC50", "experimental result": "6.30 to 7.00"}
{"compound": "N#Cc1cnc2[nH]cc(C(=O)c3cccc(NS(=O)(=O)c4cc(F)ccc4F)c3F)c2c1", "measured quantity": "pIC50", "experimental result": "≥ 5.00"}
{"compound": "CN(C)S(=O)(=O)Nc1ccc(F)c(C(=O)c2c[nH]c3nccc(Cl)c23)c1F", "measured quantity": "pIC50", "experimental result": "≥ 5.00"}
{"compound": "Cc1cc(-c2ccnc(Nc3cnn(C)c3)n2)ccc1CNC(=O)N1CCC(C(F)(F)F)CC1", "measured quantity": "pIC50", "experimental result": "> 8.00"}

* * *

Literature compilation of pIC50 measurements on BTK (Homo sapiens, UniProt Q06187).
Sequence (Q06187 whole entry): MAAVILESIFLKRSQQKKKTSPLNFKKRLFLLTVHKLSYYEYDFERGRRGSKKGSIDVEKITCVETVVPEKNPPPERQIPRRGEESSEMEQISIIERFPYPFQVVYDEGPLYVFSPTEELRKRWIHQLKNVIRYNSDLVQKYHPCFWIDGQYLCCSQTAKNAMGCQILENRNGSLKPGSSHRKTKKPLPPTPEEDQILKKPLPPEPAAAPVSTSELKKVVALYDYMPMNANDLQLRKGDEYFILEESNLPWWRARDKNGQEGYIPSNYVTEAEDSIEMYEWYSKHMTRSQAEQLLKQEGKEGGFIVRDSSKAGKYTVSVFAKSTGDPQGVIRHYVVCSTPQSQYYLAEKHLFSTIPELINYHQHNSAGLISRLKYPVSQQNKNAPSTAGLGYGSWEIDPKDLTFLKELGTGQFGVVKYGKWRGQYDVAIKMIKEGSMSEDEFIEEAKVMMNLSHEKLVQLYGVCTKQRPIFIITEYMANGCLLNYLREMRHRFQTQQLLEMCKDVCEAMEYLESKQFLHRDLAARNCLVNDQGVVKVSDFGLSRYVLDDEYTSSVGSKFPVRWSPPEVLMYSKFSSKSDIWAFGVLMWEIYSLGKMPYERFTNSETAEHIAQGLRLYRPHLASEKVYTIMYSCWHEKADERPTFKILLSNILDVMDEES
pIC50: −log10 of the molar value.
measured quantity: pIC50

{"compound": "C=CC(=O)N1CC[C@@H](Nc2nc(Nc3cnn(C4CCOCC4)c3)nc3ccsc23)C1", "assayed system": "BTK (Homo sapiens, UniProt Q06187)", "experimental result": "≥ 7.30"}
{"compound": "CC#CC(=O)c1cccc(Nc2cc(Nc3ccc(Oc4ccccc4)cc3)ncn2)c1", "assayed system": "BTK (Homo sapiens, UniProt Q06187)", "experimental result": "≥ 8.00"}
{"compound": "C=CC(=O)N1CCC[C@@H](Oc2cc(CN3CCOCC3)cc(Nc3ncc(C)s3)n2)C1", "assayed system": "BTK (Homo sapiens, UniProt Q06187)", "experimental result": 8.96}
{"compound": "Cc1cc(-c2ccnc(NCc3ccncc3)n2)ccc1CNC(=O)c1cnc(C(C)(C)C)s1", "assayed system": "BTK (Homo sapiens, UniProt Q06187)", "experimental result": "6.00 to 7.00"}
{"compound": "O=C(c1cccc(O)c1)c1c[nH]c2ncccc12", "assayed system": "BTK (Homo sapiens, UniProt Q06187)", "experimental result": "≥ 5.00"}
{"compound": "COC/C=C/C(=O)N1CCC[C@@H](n2cc(-c3ccc(Oc4ccccc4)cc3)c3c(N)n[nH]c(=O)c32)C1", "assayed system": "BTK (Homo sapiens, UniProt Q06187)", "experimental result": "4.00 to 6.00"}
{"compound": "O=C(CNc1cc(F)cc(C(F)(F)F)c1)NC1CCCN(c2ncnc3[nH]ccc23)C1 (stereo not shown)", "assayed system": "BTK (Homo sapiens, UniProt Q06187)", "experimental result": "> 7.00"}
{"compound": "C=CC(=O)N1CC(Nc2cncc(-c3cnc(Oc4cccc(OC(F)F)c4)nc3)n2)C1", "assayed system": "BTK (Homo sapiens, UniProt Q06187)", "experimental result": 8.07}
{"compound": "CCC[C@@H](Nc1cc(Cl)cc(Cl)c1)C(=O)N[C@@H]1CCCN(c2ncnc3[nH]ccc23)C1", "assayed system": "BTK (Homo sapiens, UniProt Q06187)", "experimental result": "> 7.00"}
{"compound": "Cc1cc(-c2cc(Nc3cc4n(n3)CC(C)N(C)C4)ncn2)ccc1CNC(=O)c1cnc(C(C)(C)C)s1 (stereo not shown)", "assayed system": "BTK (Homo sapiens, UniProt Q06187)", "experimental result": "> 8.00"}
{"compound": "CNC(=O)c1cccc(NCC(=O)NC2CCCN(c3ncnc4[nH]ccc34)C2)c1 (stereo not shown)", "assayed system": "BTK (Homo sapiens, UniProt Q06187)", "experimental result": "< 5.00"}
{"compound": "C=CC(=O)N1CC[C@]2(C1)C[C@H](n1c(NC(=O)c3ccno3)nc3cc(CN[C@@H](C)C(C)(C)C)ccc31)C2", "assayed system": "BTK (Homo sapiens, UniProt Q06187)", "experimental result": 8.81}
{"compound": "COc1cc(Nc2nc3c(-c4ccccc4)nccn3n2)cc(OC)c1", "assayed system": "BTK (Homo sapiens, UniProt Q06187)", "experimental result": "4.30 to 5.52"}
{"compound": "CCC(C)S(=O)(=O)Nc1ccc(F)c(C(=O)c2c[nH]c3ncc(-c4cnc(OC)nc4)cc23)c1F (stereo not shown)", "assayed system": "BTK (Homo sapiens, UniProt Q06187)", "experimental result": "≥ 5.00"}
{"compound": "CN(C)C/C=C/C(=O)N1CCC[C@@H](n2nc(-c3ccc(C(=O)Nc4ccccn4)cc3)c3c(N)ncnc32)C1", "assayed system": "BTK (Homo sapiens, UniProt Q06187)", "experimental result": "> 9.00"}
{"compound": "CC(=O)Nc1cc(N(C)[C@H]2CCCN(C(=O)CNc3cc(Cl)cc(Cl)c3)C2)ncn1", "assayed system": "BTK (Homo sapiens, UniProt Q06187)", "experimental result": "< 5.00"}
{"compound": "C=CC(=O)N1CC[C@]2(C1)C[C@H](n1c(NC(=O)c3ccc(C)nc3)nc3cc(CN[C@@H](C)C(C)(C)C)ccc31)C2", "assayed system": "BTK (Homo sapiens, UniProt Q06187)", "experimental result": 8.55}
{"compound": "C=CC(=O)N1CCc2ccc(-n3c(=O)ccc4cnc5ccc(-c6ccc(N)nc6)cc5c43)cc21", "assayed system": "BTK (Homo sapiens, UniProt Q06187)", "experimental result": 8.22}
{"compound": "CC#CC(=O)N1C2CC[C@@H](C2)C1c1nc(-c2ccc(C(C)(O)c3ccccc3)cc2)c2c(N)nccn12 (stereo partly shown)", "assayed system": "BTK (Homo sapiens, UniProt Q06187)", "experimental result": 7.62}

* * *

Literature compilation of IC50 measurements on UniProt Q06187.
measured quantity: IC50

{"compound": "CCCN(CC)S(=O)(=O)c1ccccc1NCC(=O)N[C@@H]1CCCN(c2ncnc3[nH]ncc23)C1", "measured quantity": "IC50", "experimental result": "< 100 nM"}
{"compound": "CN(C)C/C=C/C(=O)N1CC(n2nc(-c3ccc(Cl)cc3)c3c(N)ncnc32)C1", "measured quantity": "IC50", "experimental result": "< 100 nM"}
{"compound": "CN(C)C/C=C/C(=O)N1CCC[C@@H](n2nc(-c3ccc(Oc4ccccc4)cc3)c3c(N)ncnc32)C1", "measured quantity": "IC50", "experimental result": "1.1 nM"}
{"compound": "Cn1cc(-c2cn3nccc3c(-c3ccc(CNC(=O)c4cnn(C(C)(C)C)c4)c(F)c3)n2)cn1", "measured quantity": "IC50", "experimental result": "< 1 nM"}
{"compound": "C=CC(=O)N1CCC[C@@H](n2nc(-c3ccc(Oc4ccccc4)cc3C)c3c(N)ncnc32)C1", "measured quantity": "IC50", "experimental result": "5.5 nM"}
{"compound": "COc1cc(-c2cc3nccc(Nc4ccc5cn[nH]c5c4)c3o2)cc(OC)c1OC", "measured quantity": "IC50", "experimental result": "3000 to 50000 nM"}
{"compound": "Cc1cc(-c2nc(-c3cnn(C)c3)cn3nccc23)ccc1CNC(=O)c1cn(C(C)(C)C)nn1", "measured quantity": "IC50", "experimental result": "< 1 nM"}
{"compound": "C=CC(=O)N1CC(CNc2nc(Nc3cnoc3)nc3ccsc23)C1", "measured quantity": "IC50", "experimental result": "≤ 50 nM"}
{"compound": "Cc1cccc(NCC(=O)NC2CCCN(c3ncnc4[nH]ccc34)C2)c1 (stereo not shown)", "measured quantity": "IC50", "experimental result": "100 to 999 nM"}
{"compound": "C=CC(=O)Nc1cccc(Nc2cc(Nc3ccccc3)ncn2)c1", "measured quantity": "IC50", "experimental result": "10 to 100 nM"}
